Tested on: Interferon-gamma (IFN-γ)
Experiment: Interferon-gamma (IFN-γ) production in cell culture supernatants by ELISA, lymphocytes of mice immunized with adjuvanted MUC1 liposomal vaccine
Assay type: in vivo, C57-Black mice
Conditions: in words; liposomal vaccine formulations in mice, FIG. 31-FIG. 33

- compound: "CCCCCCCCCCCCO[C@H](CCCCCCCCCCC)CC(=O)N[C@H]1[C@H](OC[C@H]2OC(O)[C@H](NC(=O)C[C@@H](CCCCCCCCCCC)OCCCCCCCCCCCC)[C@@H](OC(=O)C[C@H](O)CCCCCCCCCCC)[C@@H]2O)O[C@H](CO)[C@@H](OP(=O)(O)O)[C@@H]1OC(=O)C[C@@H](CCCCCCCCCCC)OCCCCCCCCCCCC (stereo partly shown)"
  interferon-gamma production: "low"

====

Tested on: T-cell
Assay: T-cell proliferation (3H thymidine incorporation) of lymph node lymphocytes from mice immunized with MUC1-based liposomal vaccine adjuvanted with Lipid-A analog
Assay type: in vivo, C57-Black mice
Details: in words; liposomal vaccine formulations in mice, FIG. 31-FIG. 33

- molecule: "CCCCCCCCCCCCCC(=O)N[C@@H](CC(=O)N[C@H]1[C@H](OC[C@H]2OC(O)[C@H](NC(=O)C[C@@H](CCCCCCCCCCC)OC(=O)CCCCCCCCCCCCC)[C@@H](OC(=O)C[C@H](O)CCCCCCCCCCC)[C@@H]2O)O[C@H](CO)[C@@H](OP(=O)(O)O)[C@@H]1OC(=O)C[C@@H](CCCCCCCCCCC)OC(=O)CCCCCCCCCCCCC)C(=O)NCCCCCCCCC (stereo partly drawn) [Compound 77]"
  T-cell blastogenesis: "inactive"
- molecule: "CCCCCCCCCCCCCC(=O)N[C@@H](CC(=O)N[C@H]1[C@H](OC[C@H]2OC(O)[C@H](NC(=O)C[C@@H](CCCCCCCCCCC)OC(=O)CCCCCCCCCCCCC)[C@@H](O)[C@@H]2O)O[C@H](CO)[C@@H](OP(=O)(O)O)[C@@H]1OC(=O)C[C@@H](CCCCCCCCCCC)OC(=O)CCCCCCCCCCCCC)C(=O)NCCCCCCCCC (stereo partly drawn) [Compound 58]"
  T-cell blastogenesis: "inactive"

====

Tested on: Interferon-gamma (IFN-γ)
Assay: Interferon-gamma (IFN-γ) production in cell culture supernatants by ELISA, lymphocytes of mice immunized with adjuvanted MUC1 liposomal vaccine
Assay type: in vivo, C57-Black mice
Conditions: Table 3, third test group; s.c. liposomal vaccine 40 μg BP1-148 + 20 μg Lipid-A analog per dose; nine days after injection
This section presents compounds with their documented Interferon-gamma (IFN-γ, pg/ml) values.

- compound: "CCCCCCCCCCCCO[C@H](CCCCCCCCCCC)CC(=O)O[C@H](CCCCCCCCCCC)CC(=O)N[C@H]1C(O)O[C@H](CO[C@@H]2O[C@H](CO)[C@@H](OP(=O)(O)O)[C@H](OC(=O)C[C@@H](CCCCCCCCCCC)OCCCCCCCCCCCC)[C@H]2NC(=O)C[C@H](O)CCCCCCCCCCC)[C@@H](O)[C@@H]1O (stereo partly drawn)"
  assayed.system: "Interferon-gamma (IFN-γ)"
  Interferon-gamma (IFN-γ, pg/ml): "14669 pg/mL"
- compound: "CCCCCCCCCCCCCC(=O)O[C@H](CCCCCCCCCCC)CC(=O)N[C@H]1[C@H](OC[C@H]2OC(O)[C@H](NC(=O)C[C@@H](CCCCCCCCCCC)OC(=O)CCCCCCCCCCCCC)[C@@H](OC(=O)C[C@H](O)CCCCCCCCCCC)[C@@H]2O)O[C@H](CO)[C@@H](OP(=O)(O)O)[C@@H]1OC(=O)C[C@@H](CCCCCCCCCCC)OC(=O)CCCCCCCCCCCCC (stereo partly drawn)"
  assayed.system: "Interferon-gamma (IFN-γ)"
  Interferon-gamma (IFN-γ, pg/ml): "17697 pg/mL"
- compound: "CCCCCCCCCCCCO[C@H](CCCCCCCCCCC)CC(=O)N[C@H]1[C@H](OC[C@H]2OC(O)[C@H](NC(=O)C[C@@H](CCCCCCCCCCC)OC(=O)C[C@@H](CCCCCCCCCCC)OCCCCCCCCCCCC)[C@@H](O)[C@@H]2O)O[C@H](CO)[C@@H](OP(=O)(O)O)[C@@H]1OC(=O)C[C@@H](CCCCCCCCCCC)OCCCCCCCCCCCC (stereo partly drawn)"
  assayed.system: "Interferon-gamma (IFN-γ)"
  Interferon-gamma (IFN-γ, pg/ml): "10587 pg/mL"
